Data provenance: the supplement of paper PMC7877785

# self-splicing fitness (ln) per record follows
# Experimental details: self-splicing fitness, log relative to wild type (ln ratio); higher = more splicing; Tetrahymena group I intron in knt gene, E. coli kanamycin selection, DiMSum; sequences stand for … in CUCUCU…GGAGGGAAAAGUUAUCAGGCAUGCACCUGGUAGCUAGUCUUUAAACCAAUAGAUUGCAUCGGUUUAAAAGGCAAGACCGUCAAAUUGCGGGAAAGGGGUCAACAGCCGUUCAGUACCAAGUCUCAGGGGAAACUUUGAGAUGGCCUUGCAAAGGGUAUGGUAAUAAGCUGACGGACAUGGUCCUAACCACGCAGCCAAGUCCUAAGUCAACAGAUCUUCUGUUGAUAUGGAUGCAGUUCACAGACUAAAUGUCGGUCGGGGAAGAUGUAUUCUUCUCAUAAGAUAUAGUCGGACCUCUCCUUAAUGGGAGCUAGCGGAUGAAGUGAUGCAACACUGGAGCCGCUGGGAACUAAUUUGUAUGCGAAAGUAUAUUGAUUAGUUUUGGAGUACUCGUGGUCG;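 further: selection with 25 µg/mL kanamycin versus none on LB agar overnight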
# Test settings: 37 °C
A bare number is all that is needed in reply.

AUACAGCAAUAUUACGGAUG -2.05
UUAUAGCAAUAUUACGCCUC -1.59
UCAGAGCAAUAUUACGCCAA -1.74
UCCUAGCAAUAUUACGAGGC -3.06
CGCCAGCAAUAUUACGGUCA 0.542

Supply reported self-splicing fitness (ln) belonging to this sequence: "UGCUAGCAAUAUUACGCAUC"
-2.45

Quickly give me recorded self-splicing fitness (ln) for "CCACAGCAAUAUUACGAUAU"
-2.01

Return the recorded self-splicing fitness (ln) value; entry: "AUAUAGCAAUAUUACGGUUU"
-0.854

Using the record for "GCAGAGCAAUAUUACGUGUU" , state its measured self-splicing fitness (ln).
-2.42

In one line, give reported self-splicing fitness (ln) of the entry "GCAGAGCAAUAUUACGGAGU" .
-2.05

Provide measured self-splicing fitness (ln) value, entry: "UAAGAGCAAUAUUACGGGAU"
-2.99

---

# Experimental details: self-splicing fitness, log relative to wild type (ln ratio); higher = more splicing; Tetrahymena group I intron in knt gene, E. coli kanamycin selection, DiMSum; sequences stand for … in CUCUCU…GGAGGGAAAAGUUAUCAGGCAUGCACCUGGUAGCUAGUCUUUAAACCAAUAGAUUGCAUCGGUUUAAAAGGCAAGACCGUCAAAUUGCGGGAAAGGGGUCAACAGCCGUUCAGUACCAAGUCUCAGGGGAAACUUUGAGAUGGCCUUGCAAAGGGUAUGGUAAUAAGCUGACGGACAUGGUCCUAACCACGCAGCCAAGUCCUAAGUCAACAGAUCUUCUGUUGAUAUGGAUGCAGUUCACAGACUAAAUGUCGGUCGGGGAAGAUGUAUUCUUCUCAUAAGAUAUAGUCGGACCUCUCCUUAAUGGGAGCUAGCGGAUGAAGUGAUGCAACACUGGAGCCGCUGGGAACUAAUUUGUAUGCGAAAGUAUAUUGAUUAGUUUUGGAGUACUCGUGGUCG
# Test settings: 30 °C
Values of self-splicing fitness (ln) greater than or equal to -3 map to Condition met; values below map to Condition not met.

CUUUAGCAAUAUUACGUAGU Condition not met
CGGCAGCAAUAUUACGUAGG Condition met
AUGUAGCAAUAUUACGAUAG Condition met
CGCGAGCAAUAUUACGGUGU Condition not met

Please check the record "CGGUAGCAAUAUUACGCUAA" and state if its self-splicing fitness (ln) is at or above -3.
Condition met

Given the entry "UCUUAGCAAUAUUACGCACU" , answer whether its self-splicing fitness (ln) meets or surpasses -3.
Condition met

---

# Experimental details: self-splicing fitness, log relative to wild type (ln ratio); higher = more splicing; Tetrahymena group I intron in knt gene, E. coli kanamycin selection, DiMSum; sequences stand for … in CUCUCU…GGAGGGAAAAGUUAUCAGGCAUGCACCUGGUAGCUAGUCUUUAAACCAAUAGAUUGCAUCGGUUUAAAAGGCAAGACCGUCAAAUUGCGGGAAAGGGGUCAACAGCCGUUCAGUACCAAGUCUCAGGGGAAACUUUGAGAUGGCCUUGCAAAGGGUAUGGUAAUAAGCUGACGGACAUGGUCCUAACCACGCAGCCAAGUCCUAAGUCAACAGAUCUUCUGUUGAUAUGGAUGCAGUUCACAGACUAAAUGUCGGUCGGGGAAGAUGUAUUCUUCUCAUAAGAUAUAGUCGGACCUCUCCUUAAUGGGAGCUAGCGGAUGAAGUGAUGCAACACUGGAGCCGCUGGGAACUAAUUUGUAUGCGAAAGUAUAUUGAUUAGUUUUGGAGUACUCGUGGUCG
# Test settings: 30 °C
Below is a list of entries, each paired with its recorded self-splicing fitness (ln) value.
Response field accepts a number only; no unit should be typed.

These solved cases illustrate the format of a correct answer.
GUCCAGCAAUAUUACGGGUG -0.386
CGACAGCAAUAUUACGCUAG -3.79
AGUCAGCAAUAUUACGCACA -0.062
CCUGAGCAAUAUUACGAGAC -2.85

Indicate the recorded self-splicing fitness (ln) value for this sequence: "CAGUAGCAAUAUUACGAUUG"
-1.73

Tell us which self-splicing fitness (ln) value is on record for "CCUGAGCAAUAUUACGUUGG"
-4.56

Assign self-splicing fitness (ln) to the following record: "UGCUAGCAAUAUUACGUGGU"
-3.36

Please list self-splicing fitness (ln) recorded for the sequence "UCUUAGCAAUAUUACGGCUU"
-3.65

---

# Experimental details: self-splicing fitness, log relative to wild type (ln ratio); higher = more splicing; Tetrahymena group I intron in knt gene, E. coli kanamycin selection, DiMSum; sequences stand for … in CUCUCU…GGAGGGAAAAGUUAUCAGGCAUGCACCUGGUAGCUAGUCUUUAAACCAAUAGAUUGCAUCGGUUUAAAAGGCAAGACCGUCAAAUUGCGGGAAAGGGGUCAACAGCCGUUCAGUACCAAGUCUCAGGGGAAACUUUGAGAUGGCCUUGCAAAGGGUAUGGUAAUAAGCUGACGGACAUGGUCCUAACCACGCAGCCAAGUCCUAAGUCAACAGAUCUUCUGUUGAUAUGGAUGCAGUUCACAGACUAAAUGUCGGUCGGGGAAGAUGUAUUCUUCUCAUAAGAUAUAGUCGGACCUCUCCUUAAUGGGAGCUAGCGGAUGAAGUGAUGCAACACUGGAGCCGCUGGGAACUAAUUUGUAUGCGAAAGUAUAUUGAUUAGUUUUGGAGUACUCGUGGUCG
# Test settings: 30 °C
The reader will find reported self-splicing fitness (ln) values listed item by item below.
# respond with the number and nothing more

Some solved cases for reference:
UCGCAGCAAUAUUACGUGCG -4.06
AGCGAGCAAUAUUACGGCCC -1.03
AUAAAGCAAUAUUACGUGAG -1.27
UGAAAGCAAUAUUACGAUCA -0.309
UUUCAGCAAUAUUACGUUAG -1.31

Report self-splicing fitness (ln), nothing else, for this sequence: "UCAAAGCAAUAUUACGCUAG"
-1.25

Complete the entry with self-splicing fitness (ln) for "CAGAAGCAAUAUUACGGGGG"
-3.09

Given "CUCCAGCAAUAUUACGGGAC" , respond with its self-splicing fitness (ln).
-2.79

Item "UUAAAGCAAUAUUACGCACU" : provide self-splicing fitness (ln)
-0.0158

Given "AUCGAGCAAUAUUACGUUCA" , respond with its self-splicing fitness (ln).
-0.62

Please report the measured self-splicing fitness (ln) for "UGAAAGCAAUAUUACGAAAG"
-2.61

Return self-splicing fitness (ln) (reported value) for this sequence: "UUUCAGCAAUAUUACGAUCG"
-0.997

Answer with the recorded self-splicing fitness (ln) of "AGGUAGCAAUAUUACGAUUU" only.
0.169

Kindly indicate its recorded self-splicing fitness (ln). Item: "CCUUAGCAAUAUUACGUCCC"
-1.81

Check the records and state self-splicing fitness (ln) for "UACCAGCAAUAUUACGCGUC"
-2.06

Look up and state reported self-splicing fitness (ln) for "AAAAAGCAAUAUUACGAUCC"
-0.549

Return the recorded self-splicing fitness (ln) value; entry: "CGGGAGCAAUAUUACGUCGU"
-3.3

Provide measured self-splicing fitness (ln) value, entry: "CAAGAGCAAUAUUACGUCUU"
-3.62

Could you please provide reported self-splicing fitness (ln) for "ACACAGCAAUAUUACGUGGU" ? Thanks!
-4.33

Please list self-splicing fitness (ln) recorded for the sequence "ACACAGCAAUAUUACGCUUG"
-1.24

Quick one: give measured self-splicing fitness (ln) for "UUAGAGCAAUAUUACGAGGA"
-2.99

Fill in self-splicing fitness (ln) for record "UGCUAGCAAUAUUACGCGCA"
-1.97

For the sequence "AGUCAGCAAUAUUACGUUCA" , give its reported self-splicing fitness (ln).
-1.5

Consider the sequence "CGGCAGCAAUAUUACGUUCU" and give its recorded self-splicing fitness (ln).
-0.518

Give me measured self-splicing fitness (ln), please, for this sequence: "GUCUAGCAAUAUUACGAUGG"
-3.48

Assign self-splicing fitness (ln) to the following record: "CACCAGCAAUAUUACGGUAA"
-1.18

Identify the reported self-splicing fitness (ln) for the following entry. "AAUCAGCAAUAUUACGGAGC"
-2.64

Complete the entry with self-splicing fitness (ln) for "GGUGAGCAAUAUUACGUCUG"
-3.31

Specify self-splicing fitness (ln) for "CUAAAGCAAUAUUACGGUUG" and stop.
-0.57

Please report the measured self-splicing fitness (ln) for "AUCAAGCAAUAUUACGGGGU"
-3.94
